Values compiled from paper PMC4884629.

Biological target: HERG potassium channel (Homo sapiens)
Sequence (Q12809 whole entry): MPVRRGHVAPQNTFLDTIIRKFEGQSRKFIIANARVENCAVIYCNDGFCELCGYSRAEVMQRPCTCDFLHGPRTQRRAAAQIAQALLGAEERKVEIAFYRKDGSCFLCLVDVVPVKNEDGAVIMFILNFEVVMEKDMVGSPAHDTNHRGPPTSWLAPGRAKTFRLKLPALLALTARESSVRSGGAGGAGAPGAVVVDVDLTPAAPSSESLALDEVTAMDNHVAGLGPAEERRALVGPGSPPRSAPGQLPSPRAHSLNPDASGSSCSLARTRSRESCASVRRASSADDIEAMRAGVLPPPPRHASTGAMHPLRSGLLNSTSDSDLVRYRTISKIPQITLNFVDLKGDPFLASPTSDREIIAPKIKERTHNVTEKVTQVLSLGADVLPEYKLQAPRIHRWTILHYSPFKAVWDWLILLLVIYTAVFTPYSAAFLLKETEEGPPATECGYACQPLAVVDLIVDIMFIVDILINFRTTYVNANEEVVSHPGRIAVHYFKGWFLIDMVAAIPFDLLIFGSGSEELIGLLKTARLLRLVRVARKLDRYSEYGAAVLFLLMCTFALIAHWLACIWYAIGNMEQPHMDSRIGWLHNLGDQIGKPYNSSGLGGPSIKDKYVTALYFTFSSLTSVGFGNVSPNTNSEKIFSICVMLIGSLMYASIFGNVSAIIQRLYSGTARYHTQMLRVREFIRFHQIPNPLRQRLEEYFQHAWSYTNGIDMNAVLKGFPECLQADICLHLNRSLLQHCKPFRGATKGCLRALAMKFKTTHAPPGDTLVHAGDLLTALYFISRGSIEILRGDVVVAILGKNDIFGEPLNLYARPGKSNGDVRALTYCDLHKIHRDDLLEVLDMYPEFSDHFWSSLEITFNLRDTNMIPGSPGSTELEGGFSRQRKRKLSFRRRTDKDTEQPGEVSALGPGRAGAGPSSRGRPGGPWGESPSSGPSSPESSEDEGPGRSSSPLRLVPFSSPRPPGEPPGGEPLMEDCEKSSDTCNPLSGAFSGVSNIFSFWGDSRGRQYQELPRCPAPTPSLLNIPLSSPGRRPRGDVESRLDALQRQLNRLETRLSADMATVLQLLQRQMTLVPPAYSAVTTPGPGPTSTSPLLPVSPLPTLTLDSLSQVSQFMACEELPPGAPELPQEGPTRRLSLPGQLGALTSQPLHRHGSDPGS
Test: whole-cell patch clamp, HERG tail current in CHO cells
pIC50: −log10 of the molar value.
Assay Readout: pIC50

CCCCCCCC[N+](CCCCCCCC)(CCCCCCCC)CCCCCCCC [TB, tetra-n-octylammonium bromide]; 8.40
